Molecular target: CCR2 (Homo sapiens, UniProt P41597)
Sequence (P41597 1-360 isoform P41597-2): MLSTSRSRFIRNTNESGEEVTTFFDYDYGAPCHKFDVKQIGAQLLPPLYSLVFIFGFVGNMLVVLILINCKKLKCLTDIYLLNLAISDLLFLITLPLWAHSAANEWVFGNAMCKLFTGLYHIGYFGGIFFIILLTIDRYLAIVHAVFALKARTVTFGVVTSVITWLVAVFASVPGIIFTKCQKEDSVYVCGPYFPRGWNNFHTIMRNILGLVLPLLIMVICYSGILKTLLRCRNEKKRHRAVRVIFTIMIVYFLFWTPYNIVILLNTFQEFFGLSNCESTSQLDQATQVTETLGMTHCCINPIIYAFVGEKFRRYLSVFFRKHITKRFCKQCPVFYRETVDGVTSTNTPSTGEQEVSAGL
pIC50: −log10 of the molar value.
Classification field: enter t for pIC50 values not below 7, f for values below it.

# count of solved cases: 5
{"COMPOUND": "O=C(O)C(C1CCN(C(=O)/C=C/c2cccc([N+](=O)[O-])c2)CC1)N1CCC(c2c[nH]c3ccccc23)CC1 (stereo not drawn)", "LABEL": "t"}
{"COMPOUND": "N=C(NC(=O)c1cc(F)cc(F)c1)N1CCC(C(C(=O)O)N2CCC(c3c[nH]c4ccccc34)CC2)CC1 (stereo not drawn)", "LABEL": "f"}
{"COMPOUND": "O=C(O)C(C1CCN(C(=O)/C=C/c2cccc(Br)c2)CC1)N1CCC(c2c[nH]c3ccccc23)CC1 (stereo not drawn)", "LABEL": "t"}
{"COMPOUND": "COC(=O)OCC(C1CCN(C(=O)/C=C/c2cc(F)cc(F)c2)CC1)N1CCC(c2ccc(Cl)cc2)CC1 (stereo not drawn)", "LABEL": "f"}
{"COMPOUND": "CC(=O)NCC(C1CCN(C(=O)/C=C/c2cccc(C)c2)CC1)N1CCC(c2c[nH]c3ccccc23)CC1 (stereo not drawn)", "LABEL": "f"}

Alright, here's another compound for you.
Challenge: Decide: pIC50 of O=C(O)C(C1CCN(C(=O)/C=C/c2cc(F)c(F)c(F)c2)CC1)N1CCC(c2c[nH]c3cccnc23)CC1 (stereo not drawn) >= 7?
Response given: f
